Source listed as patent US9873680B2.

testProtocol: Test B: Cytotoxicity Assay
Assay type: cell-based
recordedConditions: human, uninfected MT-4 cells, CellTiter-Glo
parameter: CC50 at 5 days

Bench note: what CC50 at 5 days did "NC(=O)c1cc(-c2ccc(C#CC3(O)CC(F)(F)C3)nc2[C@H](Cc2cc(F)cc(F)c2)NC(=O)Cn2nc(C(F)(F)F)c3c2C(F)(F)[C@@H]2C[C@H]32)ccc1F" show?
3.64 µM

Bench note: what CC50 at 5 days did "Cn1nc(NS(C)(=O)=O)c2c(Cl)ccc(-c3ccc(C#CC4(O)CCC4)nc3[C@H](Cc3cc(F)cc(F)c3)NC(=O)Cn3nc(C(F)F)c4c3C(F)(F)[C@@H]3C[C@H]43)c21" show?
13.6 µM

Bench note: what CC50 at 5 days did Cn1nc(NS(C)(=O)=O)c2c(Cl)ccc(-c3ccc(C#CC4(C)OCCn5ccnc54)nc3[C@H](Cc3cc(F)cc(F)c3)NC(=O)Cn3nc(C(F)(F)F)c4c3C(F)(F)[C@@H]3C[C@H]43)c21 (some centres unmarked) [Compound 81E] show?
> 57 µM

Bench note: what CC50 at 5 days did "Cc1cc2ncn(CC(=O)N[C@@H](Cc3cc(F)cc(F)c3)c3nc(C#CC4(O)CCOCC4)ccc3-c3ccc4n[nH]c(=O)n4c3C)c2cc1C" show?
31.6 µM

Bench note: what CC50 at 5 days did "Cn1nc(NS(C)(=O)=O)c2c(Cl)ccc(-c3ccc(C#CC4(O)CC(F)(F)C4)nc3[C@H](Cc3cc(F)cc(F)c3)NC(=O)Cn3nc(C(F)F)c4c3C(F)(F)CCC4(F)F)c21" show?
8.42 µM

* * *

testProtocol: Test B: Cytotoxicity Assay
Assay type: cell-based
recordedConditions: human, uninfected MT-4 cells, CellTiter-Glo
parameter: CC50 at 5 days (µM)
Express your answer in µM, writing the number without its unit.

Bench note: what CC50 at 5 days did Cn1nc(NS(C)(=O)=O)c2c(Cl)ccc(-c3ccc(C#CC(C)(C)n4ccnc4)nc3[C@H](Cc3cc(F)cc(F)c3)NC(=O)Cn3nc(C(F)(F)F)c4c3C(F)(F)[C@@H]3C[C@H]43)c21 [Compound 79B] show?
11.5

Bench note: what CC50 at 5 days did Cn1nc(NS(C)(=O)=O)c2cccc(-c3ccc(C#CCN4CCOCC4)nc3[C@H](Cc3cc(F)cc(F)c3)NC(=O)Cn3nc(C(F)(F)F)c4c3C(F)(F)[C@@H]3C[C@H]43)c21 [Compound 34] show?
10.2

Bench note: what CC50 at 5 days did Cc1nccn1C(C)(C)C#Cc1ccc(-c2ccc(Cl)c3c(NS(C)(=O)=O)nn(C)c23)c([C@H](Cc2cc(F)cc(F)c2)NC(=O)Cn2nc(C(F)F)c3c2C(F)(F)[C@@H]2C[C@H]32)n1 [Compound 89B] show?
8.31

Bench note: what CC50 at 5 days did Cn1nc(NS(C)(=O)=O)c2c(Cl)ccc(-c3ccc(C#CC4(C)CNCCO4)nc3[C@H](Cc3cc(F)cc(F)c3)NC(=O)Cn3nc(C(F)(F)F)c4c3C(F)(F)[C@@H]3C[C@H]43)c21 (stereo partly shown) [Compound 76] show?
6.67

Bench note: what CC50 at 5 days did Cn1nc(NS(C)(=O)=O)c2c(Cl)ccc(-c3cc(-c4cnn(C5COC5)c4)cnc3[C@H](Cc3cc(F)cc(F)c3)NC(=O)Cn3nc(C(F)F)c4c3C(F)(F)[C@@H]3C[C@H]43)c21 [Compound 93D] show?
18.3

Bench note: what CC50 at 5 days did Cn1nc(NS(C)(=O)=O)c2cccc(-c3ccc(C#CC4CCOCC4)nc3[C@H](Cc3cc(F)cc(F)c3)NC(=O)Cn3nc(C(F)(F)F)c4c3C(F)(F)[C@@H]3C[C@H]43)c21 [Compound 28B] show?
6.07

Bench note: what CC50 at 5 days did CC(O)(C#Cc1ccc(-c2ccc(F)c(C(N)=O)c2)c([C@H](Cc2cc(F)cc(F)c2)NC(=O)Cn2nc(C(F)(F)F)c3c2C(F)(F)[C@@H]2C[C@H]32)n1)c1ccccc1 (stereo partly shown) [Compound 17] show?
3.06

Bench note: what CC50 at 5 days did Cn1nc(NS(C)(=O)=O)c2c(Cl)ccc(-c3ccc(C#CC4(O)CCOCC4)nc3[C@H](Cc3cc(F)cc(F)c3)NC(=O)Cn3nc(C(F)(F)F)c4c3C(F)(F)[C@@H]3C[C@H]43)c21 [Compound 39] show?
10.7

Bench note: what CC50 at 5 days did Cn1nc(NS(C)(=O)=O)c2c(Cl)ccc(-c3ccc(C#CC4CCNC4)nc3[C@H](Cc3cc(F)cc(F)c3)NC(=O)Cn3nc(C(F)(F)F)c4c3C(F)(F)[C@@H]3C[C@H]43)c21 (stereo partly shown) [Compound 44] show?
5.64

Bench note: what CC50 at 5 days did NC(=O)c1cc(-c2ccc(C#CC3(O)CCCCC3)nc2[C@H](Cc2cc(F)cc(F)c2)NC(=O)Cn2nc(C(F)(F)F)c3c2C(F)(F)[C@@H]2C[C@H]32)ccc1F [Compound 16] show?
3

Bench note: what CC50 at 5 days did Cn1nc(O)c2c(Cl)ccc(-c3ccc(C#CC4(O)CCOCC4)nc3[C@H](Cc3cc(F)cc(F)c3)NC(=O)Cn3nc(C(F)(F)F)c4c3CCCC4)c21 [Compound 57] show?
21

Bench note: what CC50 at 5 days did CC1CC(O)(C#Cc2ccc(-c3ccc(Cl)c4c(NS(C)(=O)=O)nn(C)c34)c([C@H](Cc3cc(F)cc(F)c3)NC(=O)Cn3nc(C(F)(F)F)c4c3C(F)(F)[C@@H]3C[C@H]43)n2)CC(C)O1 (stereo partly shown) [Compound 48C] show?
7.27

Bench note: what CC50 at 5 days did Cn1nc(NS(C)(=O)=O)c2cccc(-c3ccc(C#CC4(O)CCOC4)nc3[C@H](Cc3cc(F)cc(F)c3)NC(=O)Cn3nc(C(F)(F)F)c4c3C(F)(F)[C@@H]3C[C@H]43)c21 (stereo partly shown) [Compound 30B] show?
19.5

Bench note: what CC50 at 5 days did Cn1cnc(C(O)C#Cc2ccc(-c3ccc(Cl)c4c(NS(C)(=O)=O)nn(C)c34)c([C@H](Cc3cc(F)cc(F)c3)NC(=O)Cn3nc(C(F)(F)F)c4c3C(F)(F)[C@@H]3C[C@H]43)n2)c1 (stereo partly shown) [Compound 56B] show?
9.02

Bench note: what CC50 at 5 days did Cn1nc(NS(C)(=O)=O)c2c(Cl)ccc(-c3ccc(C#CC4CCCN4C(=O)CO)nc3[C@H](Cc3cc(F)cc(F)c3)NC(=O)Cn3nc(C(F)(F)F)c4c3C(F)(F)[C@@H]3C[C@H]43)c21 (stereo partly shown) [Compound 66] show?
11.6

Bench note: what CC50 at 5 days did O=C(Cn1nc(C(F)F)c2c1C(F)(F)CCC2(F)F)N[C@@H](Cc1cc(F)cc(F)c1)c1nc(C#Cc2cncnc2)ncc1-c1ccc2c(c1)C(=O)NC2 [Compound 7H] show?
0.534

Bench note: what CC50 at 5 days did Cn1nc(NS(C)(=O)=O)c2c(Cl)ccc(-c3ccc(C#CC4(O)CC5(COC5)C4)nc3[C@H](Cc3cc(F)cc(F)c3)NC(=O)Cn3nc(C(F)(F)F)c4c3C(F)(F)[C@@H]3C[C@H]43)c21 [Compound 51B] show?
19.8

* * *

testProtocol: Test B: Cytotoxicity Assay
Type: cell-based
recordedConditions: human, uninfected MT-4 cells, CellTiter-Glo
Exercise: state measured CC50 at 5 days for each of the molecules provided.
Express your answer in µM, writing the number without its unit.

Bench note: what CC50 at 5 days did "Cn1nc(NS(C)(=O)=O)c2c(Cl)ccc(-c3ccc(C#CC4(O)CCOCC4)nc3[C@H](Cc3cc(F)cc(F)c3)NC(=O)Cn3nc(C(F)F)c4c3C(F)(F)[C@@H]3C[C@H]43)c21" show?
17

Bench note: what CC50 at 5 days did Cn1nc(NS(C)(=O)=O)c2cccc(-c3ccc(C#CC4(O)COC4)nc3[C@H](Cc3cc(F)cc(F)c3)NC(=O)Cn3nc(C(F)(F)F)c4c3C(F)(F)[C@@H]3C[C@H]43)c21 [Compound 20E] show?
27.7

Bench note: what CC50 at 5 days did Cn1nc(NS(C)(=O)=O)c2c(Cl)ccc(-c3ccc(C#CC4(O)CC(F)(F)C4)nc3[C@H](Cc3cccc(F)c3)NC(=O)Cn3nc(C(F)F)c4c3C(F)(F)[C@@H]3C[C@H]43)c21 [Compound 101H] show?
9.1

Bench note: what CC50 at 5 days did "Cn1nc(NS(C)(=O)=O)c2c(Cl)ccc(-c3cc(N)c(C#CC4(O)CC(F)(F)C4)nc3[C@H](Cc3cc(F)cc(F)c3)NC(=O)Cn3nc(C(F)(F)F)c4c3C(F)(F)[C@@H]3C[C@H]43)c21" show?
8.2

Bench note: what CC50 at 5 days did Cn1nc(NS(C)(=O)=O)c2c(Cl)ccc(-c3ccc(C#CC4(O)CCC4)nc3[C@H](Cc3cc(F)cc(F)c3)NC(=O)Cn3nc(C(F)(F)F)c4c3C(F)(F)[C@@H]3C[C@H]43)c21 [Compound 61C] show?
7.89
